compounds and their reported Emax
tested on: primary human mesenchymal stem cells (hMSCs); test: Induction of chondrogenesis in human mesenchymal stem cells (nodule staining with Rhodamine B / Nile Red); format: cell-based; settings: TGF-β3 (10 ng/mL) as positive control, read-out: Max. Activity as % TGF-β3 activity
Write down the numeric answer in % and omit the unit.

Please review the following examples before continuing.
{"recordSmiles": "NC1CN(c2cncc(-c3ccc4[nH]nc(-c5nc6c(-c7cccc(F)c7)cccc6[nH]5)c4n3)n2)C1", "Emax [%]": 53}
{"recordSmiles": "O=C(Nc1cncc(-c2ccc3[nH]nc(-c4nc5c(-c6ccccc6F)cccc5[nH]4)c3n2)c1)C(F)(F)F", "Emax [%]": 40}
{"recordSmiles": "CCNCc1cncc(-c2ccc3[nH]nc(-c4nc5c(-c6cc(F)cc(NCCN(C)C)c6)cccc5[nH]4)c3n2)c1", "Emax [%]": 104}

## Input Name the reported Emax value associated with the compound CC(C)Nc1cncc(-c2ccc3[nH]nc(-c4nc5c(-c6cc(F)cc(NCCN(C)C)c6)cccc5[nH]4)c3n2)c1
## Output 62

## Input Fill blank: measured Emax of the compound CN1CCN(c2cccc3[nH]c(-c4n[nH]c5ccc(-c6cncc(N)c6)nc45)nc23)CC1 is ____.
## Output 50

## Input Any idea what Emax was measured for CC(C)C(=O)Nc1cncc(-c2ccc3[nH]nc(-c4nc5c(N6CCN(C)CC6)cccc5[nH]4)c3n2)c1 ?
## Output 52

* * *

Listed here are compounds together with their documented EC50.
test system: Wnt activity (Sp5-Luc reporter, Wnt-responsive promoter) in SW480 colon carcinoma cells; experiment: Wnt activity screening assay: Sp5-Luc reporter gene assay in SW480 cells; format: cell-based; conditions: Homo sapiens, overnight incubation, 10-point curve starting from 10 μM
Your answer is read as µM, so omit the unit and give the number.

These recorded examples may help you get a feel for the data.
{"recordSmiles": "CN(C)CCOc1cncc(-c2ccc3[nH]nc(-c4nc5c(-c6cccs6)cccc5[nH]4)c3n2)c1", "EC50 [µM]": 4.19}
{"recordSmiles": "O=C(Nc1cncc(-c2ccc3[nH]nc(-c4nc5c(-c6cccs6)cccc5[nH]4)c3n2)c1)C1CC1", "EC50 [µM]": 3.38}

## Input Recorded EC50 for CN(C)Cc1cncc(-c2ccc3[nH]nc(-c4nc5c(-c6cccc(F)c6)cccc5[nH]4)c3n2)c1 , please?
## Output 0.637

## Input // query EC50 value for entry Cc1cn(-c2cccc3[nH]c(-c4n[nH]c5ccc(-c6cncc(NC(=O)C7CCC7)c6)nc45)nc23)cn1
## Output 2.84

## Input Using the record for CCCC(=O)Nc1cncc(-c2ccc3[nH]nc(-c4nc5c(-c6cc(F)cc(CNS(C)(=O)=O)c6)cccc5[nH]4)c3n2)c1 , report its EC50.
## Output 3.22

## Input Returns the measured EC50 for the input compound. Input: CN(C)CC(=O)Nc1cncc(-c2ccc3[nH]nc(-c4nc5c(-c6cccc(F)c6)cccc5[nH]4)c3n2)c1
## Output 3.99

## Input For c1cc(-c2ccoc2)c2nc(-c3n[nH]c4ccc(-c5cncc(OCCN6CCCC6)c5)nc34)[nH]c2c1 , what is its reported EC50?
## Output 4.21

## Input Tell me the measured EC50 of Cc1ccc(-c2cccc3[nH]c(-c4n[nH]c5ccc(-c6cncc(OC7CCCCC7)c6)nc45)nc23)s1 , please.
## Output 3.81

## Input // EC50 lookup, key: CN(C)c1cncc(-c2ccc3[nH]nc(-c4nc5c(-c6cccc(F)c6)cccc5[nH]4)c3n2)c1
## Output 0.779

## Input Fill blank: measured EC50 of the compound Cn1cc(-c2ccc3[nH]nc(-c4nc5c(-c6ccc7c(c6)OCO7)cccc5[nH]4)c3n2)c(CO)n1 is ____.
## Output 0.929

## Input # lookup: EC50 of Oc1cncc(-c2ccc3[nH]nc(-c4nc5c(-c6cccnc6)cccc5[nH]4)c3n2)c1
## Output 1.45

## Input Could you share which EC50 value was measured for O=C(Nc1cncc(-c2ccc3[nH]nc(-c4nc5c(-c6ccccc6F)cccc5[nH]4)c3n2)c1)C(F)(F)F ?
## Output 0.892

## Input For COc1cccc(-c2cccc3[nH]c(-c4n[nH]c5ccc(-c6cncc(O)c6)nc45)nc23)c1 , what is its reported EC50?
## Output 0.98

## Input # lookup: EC50 of COc1cccc(-c2cccc3[nH]c(-c4n[nH]c5ccc(-c6cncc(OC7CCNCC7)c6)nc45)nc23)c1
## Output 3.97

## Input Quick check: EC50 of CCNCc1cncc(-c2ccc3[nH]nc(-c4nc5c(-c6cc(F)cc(NCCN(C)C)c6)cccc5[nH]4)c3n2)c1 ?
## Output 3.37

## Input Which EC50 is reported for this compound? CC(C)CC(=O)Nc1cncc(-c2ccc3[nH]nc(-c4nc5c(-c6ccc(Cl)s6)cccc5[nH]4)c3n2)c1
## Output 1.9

## Input Given the compound CN1CCN(c2cccc3[nH]c(-c4n[nH]c5ccc(-c6cncc(OCc7ccccc7)c6)nc45)nc23)CC1 , what is its reported EC50?
## Output 1.06

## Input Value lookup for EC50; key = CN(C)c1cncc(-c2ccc3[nH]nc(-c4nc5c(-c6cccs6)cccc5[nH]4)c3n2)c1
## Output 1.72
